# % INHB SYK at 1 μM per record follows
# assayTarget: Recombinant human Syk (GST-Syk kinase fusion protein) (Homo sapiens)
# Construct: made in house
# procedureText: Syk Kinase Test (Kinase Glo Luminescence Kinase test)
# Format: biochemical
# condition: 1 μM test substance; negative control (no kinase) = 100% inhibition, positive control (no test substance) = 0% inhibition
The reply should consist of the numeric value with the unit placed after it.

Illustrative cases are given below, each with its answer.
smilesstructure=CC(=O)N[C@H]1CC[C@@H](Nc2nc(-c3ccc(N4CCOCC4)cc3)cc3ncccc23)CC1 measurement=94.7%
smilesstructure=Cc1cc(-c2cc3ncccc3c(OC[C@H]3CCCNC3)n2)ccc1N1CCOCC1 measurement=102.8%
smilesstructure=CNc1nc(-c2ccc(N3CCOCC3)cc2)cc2ncccc12 measurement=101.8%

Attention now turns to another entry.
What % INHB SYK at 1 μM value was documented for this molecule, NC(=O)c1cccnc1Nc1nc(-c2ccc(N3CCOCC3)cc2)cc2ncccc12 ? 72.6%
